Assay target: Tyrosine-protein phosphatase non-receptor type 22 (Homo sapiens, UniProt Q9Y2R2)
Sequence (Q9Y2R2 whole entry): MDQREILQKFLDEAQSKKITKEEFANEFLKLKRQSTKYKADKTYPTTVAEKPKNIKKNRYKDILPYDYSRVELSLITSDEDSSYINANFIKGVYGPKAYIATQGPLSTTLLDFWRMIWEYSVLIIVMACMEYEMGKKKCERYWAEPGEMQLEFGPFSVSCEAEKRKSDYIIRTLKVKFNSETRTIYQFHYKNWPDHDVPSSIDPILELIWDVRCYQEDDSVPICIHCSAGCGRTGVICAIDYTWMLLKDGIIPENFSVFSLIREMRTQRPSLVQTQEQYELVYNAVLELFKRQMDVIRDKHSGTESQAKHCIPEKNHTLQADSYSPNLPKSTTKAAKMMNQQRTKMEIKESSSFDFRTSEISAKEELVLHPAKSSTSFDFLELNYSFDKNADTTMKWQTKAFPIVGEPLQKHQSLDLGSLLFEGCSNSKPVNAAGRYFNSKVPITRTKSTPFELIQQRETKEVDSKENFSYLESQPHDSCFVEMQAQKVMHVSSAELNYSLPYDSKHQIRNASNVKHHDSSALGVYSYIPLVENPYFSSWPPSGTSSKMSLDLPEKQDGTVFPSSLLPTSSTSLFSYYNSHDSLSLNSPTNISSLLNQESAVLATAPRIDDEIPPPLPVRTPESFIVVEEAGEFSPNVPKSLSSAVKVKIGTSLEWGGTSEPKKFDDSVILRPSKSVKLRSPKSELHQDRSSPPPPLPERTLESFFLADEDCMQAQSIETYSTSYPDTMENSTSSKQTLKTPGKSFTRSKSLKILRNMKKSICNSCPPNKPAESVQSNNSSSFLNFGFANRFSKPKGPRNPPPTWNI
Measurement type: IC50 (µM)
Numbers only, in µM.

Qu. Can you look up the measured IC50 of `O=C(O)c1ccc(/C=C/C(=O)c2cccc([N+](=O)[O-])c2)cc1` for me?
Ans. 11.5

* * *

Assay target: Low molecular weight protein-tyrosine phosphatase A (Mycobacterium tuberculosis, UniProt P9WIA1)
Sequence (P9WIA1 whole entry): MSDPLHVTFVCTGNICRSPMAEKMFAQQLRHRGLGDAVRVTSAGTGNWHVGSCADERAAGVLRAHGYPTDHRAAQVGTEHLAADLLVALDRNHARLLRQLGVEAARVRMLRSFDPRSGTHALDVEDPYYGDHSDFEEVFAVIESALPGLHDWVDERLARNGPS
Measurement type: IC50 (µM)
Answers are plain numbers, in µM.

Qu. Can you look up the measured IC50 of `O=C(O)c1ccc(/C=C/C(=O)c2cccc([N+](=O)[O-])c2)cc1` for me?
Ans. 3
